target: Structural capsid protein (Human immunodeficiency virus 1) (UniProt Q76129); test: Binding affinity to HIV1 capsid protein assessed as viral capsid assembly rate at 1 mM by ultraviolet spectrophotometry (RVb= 60.56 +/- 3.77 milliOD/min)
Sequence (Q76129 as listed by the source): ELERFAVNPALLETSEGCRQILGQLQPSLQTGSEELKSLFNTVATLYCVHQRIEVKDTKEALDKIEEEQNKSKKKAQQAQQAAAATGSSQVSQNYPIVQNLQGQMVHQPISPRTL
So basically: Activity (milli optical density/minute) at 20 or higher? That is true (1). Lower than 20? That is false (0).

Inquiry: Does the reported Activity (milli optical density/minute) for CCC(C)[C@H](NC(=O)c1ccc(OC)cc1)C(=O)N/N=C/c1ccc(Cl)cc1 (mixture of isomers) fall at or above the 20 mark?
Reply text: false (0)

Inquiry: Does the reported Activity (milli optical density/minute) for COc1ccc(C(=O)N[C@@H](Cc2ccc(O)cc2)C(=O)N/N=C/c2ccccc2)cc1 fall at or above the 20 mark?
Reply text: true (1)

Inquiry: Does the reported Activity (milli optical density/minute) for COc1ccc(C(=O)N[C@@H](Cc2ccc(O)cc2)C(=O)N/N=C/c2ccc(Cl)cc2)cc1 fall at or above the 20 mark?
Reply text: true (1)

Inquiry: Does the reported Activity (milli optical density/minute) for COc1ccc(C(=O)N[C@@H](Cc2c[nH]cn2)C(=O)N/N=C/c2ccccc2)cc1 fall at or above the 20 mark?
Reply text: false (0)

Inquiry: Does the reported Activity (milli optical density/minute) for COc1ccc(/C=N/NC(=O)[C@H](Cc2c[nH]cn2)NC(=O)c2ccc(OC)cc2)cc1 fall at or above the 20 mark?
Reply text: false (0)

meta.source: ChEMBL document CHEMBL1157643
